Target: Integrin alpha-V/beta-3 (Homo sapiens, UniProt P05106+P06756)
Assay: Competitive inhibition of biotinylated vitronectin to integrin alphaVbeta3 receptor after 3 hrs by microplate reader analysis
Assay type: protein-complex assay
Measure: IC50 (nM)
Write the value in nM as a bare number.

Q. Bench note: what IC50 did N=C(N)NCCC[C@@H]1NC(=O)C[C@@H]2C(=O)N[C@@H](CNC(=O)[C@H](CC(=O)O)NC(=O)CNC1=O)C(=O)N2Cc1ccccc1 show?
A. 2.1

Q. Bench note: what IC50 did CC(=O)O[C@H]1C(=O)[C@@]2(C)[C@H]([C@H](OC(=O)c3ccccc3)[C@]3(O)C[C@H](OC(=O)[C@H](OC(=O)CCC(=O)NCc4ccc(CN5C(=O)[C@@H]6CNC(=O)[C@H](CC(=O)O)NC(=O)CNC(=O)[C@H](CCCNC(=N)N)NC(=O)C[C@@H]5C(=O)N6)cc4)[C@@H](NC(=O)c4ccccc4)c4ccccc4)C(C)=C1C3(C)C)[C@]1(OC(C)=O)CO[C@@H]1C[C@@H]2O show?
A. 1.1

Q. Bench note: what IC50 did CC(=O)O[C@H]1C(=O)[C@@]2(C)[C@H]([C@H](OC(=O)c3ccccc3)[C@]3(O)C[C@H](OC(=O)[C@H](OC(=O)CCC(=O)NCc4ccc(CN5C(=O)[C@@H]6CC(=O)N[C@@H](CCCNC(=N)N)C(=O)NCC(=O)N[C@@H](CC(=O)O)C(=O)NC[C@@H]5C(=O)N6)cc4)[C@@H](NC(=O)c4ccccc4)c4ccccc4)C(C)=C1C3(C)C)[C@]1(OC(C)=O)CO[C@@H]1C[C@@H]2O show?
A. 8.5

Q. Bench note: what IC50 did CC(=O)O[C@H]1C(=O)[C@@]2(C)[C@H]([C@H](OC(=O)c3ccccc3)[C@]3(O)C[C@H](OC(=O)[C@H](OC(=O)CCC(=O)NCc4ccc(CN5C(=O)[C@H]6CNC(=O)[C@H](CC(=O)O)NC(=O)CNC(=O)[C@H](CCCN=C(N)N)NC(=O)C[C@H]5C(=O)N6)cc4)[C@@H](NC(=O)c4ccccc4)c4ccccc4)C(C)=C1C3(C)C)[C@]1(OC(C)=O)CO[C@@H]1C[C@@H]2O show?
A. 0.9
